Test system: AncSZ;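 also: 11-residue human phosphosite peptides and single-mutation variants displayed on the E. coli surface, counted by deep sequencing, each peptide's frequency after selection divided by its frequency in the unselected input library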;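 also: frequency after pTyr selection over input frequency; kinase dosed for 20-30% of maximal phosphorylation in three min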
assay-notes: phosphorylation enrichment, bacterial display (enrichment ratio); higher = better substrate or ligand; peptides without Tyr show the background
Binning rule for recorded phosphorylation enrichment: group 1: < 0.8; group 2: ≥ 0.8 and < 1; group 3: ≥ 1

# sequence-content, target-system, class-name
rows = [
    ("ENRKFYMDLKE [PURA_Y156_YF]", "AncSZ", "group 2"),
    ("EKLIQYCQSKG [AKR1B1_Y199]", "AncSZ", "group 1"),
    ("RLKAKYPAATG [GLI3_Y933_A934P]", "AncSZ", "group 1"),
    ("QFQEKYKQMEQ [HCN4_Y531_V534M_YF]", "AncSZ", "group 3"),
    ("IVKAYYVHARA [AIPL1_Y268_R270H]", "AncSZ", "group 2"),
    ("ADAHHYLCKEV [JAK2_Y382]", "AncSZ", "group 1"),
    ("LRRFIYRPPDQ [OTOF_Y1231_R1236Q]", "AncSZ", "group 1"),
    ("SARFPYLMAEK [LDHB_Y173_R172P]", "AncSZ", "group 1"),
    ("GIPIQYPIISE [NOG_Y222_W217G]", "AncSZ", "group 2"),
    ("HRFAAYFQQGD [GPI_Y351]", "AncSZ", "group 3"),
    ("EDNPEYMRLRN [ADD2_Y31_D28N]", "AncSZ", "group 3"),
    ("KDHLDYKFQPR [SOX9_Y172_P170L_YF]", "AncSZ", "group 1"),
    ("LTERSYSFVTT [ACTA1_Y200_G199S]", "AncSZ", "group 2"),
    ("TFGVLYKARNK [CDK2_Y19_V18L_YF]", "AncSZ", "group 2"),
    ("ENELTYFCFKK [CD59_Y86_C89Y_YF]", "AncSZ", "group 3"),
    ("MARDISRASYY [ALK_Y1278_Y1278S]", "AncSZ", "group 1"),
    ("PEVCDYGLGGG [GSTO1_Y239_A236V]", "AncSZ", "group 3"),
    ("IFLGAYDRFLP [SLC22A5_Y486_V481I_YF]", "AncSZ", "group 3"),
    ("AHAGEYGAEAL [HBA1_Y25]", "AncSZ", "group 1"),
    ("HNLDFYKKTTN [FGFR3_Y648_YF]", "AncSZ", "group 3"),
    ("VECQVYAEDPF [PCCA_Y401_R399Q_YF]", "AncSZ", "group 3"),
    ("GGRKGYGGFSR [RECQL5_Y478_D480G]", "AncSZ", "group 1"),
    ("CTTIHQNYMCN [TP53_Y234_Y234Q]", "AncSZ", "group 1"),
    ("FQKNIYSEEPR [LMNA_Y211_L215P]", "AncSZ", "group 1"),
    ("EWQQIYTYDSG [JUP_Y20_T19I]", "AncSZ", "group 3"),
    ("RQSTLYSFFPK [MSH6_Y8]", "AncSZ", "group 3"),
    ("MCVKSYTIHFS [F5_Y2153_Y2149C_YF]", "AncSZ", "group 3"),
    ("SVTCTYSPALN [TP53_Y126]", "AncSZ", "group 3"),
    ("NDQANYSLNTD [ADA_Y290]", "AncSZ", "group 2"),
    ("GSTLSYGRDGR [MATR3_Y158_P154S]", "AncSZ", "group 1"),
    ("PEIIAYQPYGK [PRKCG_Y529]", "AncSZ", "group 2"),
    ("IRRSSYEDSSL [HNF4A_Y144_T139I]", "AncSZ", "group 1"),
    ("NNFGNYNNQSS [HNRNPA1_Y318_D314N]", "AncSZ", "group 1"),
    ("YARECYSALPQ [SARS2_Y52_G51C]", "AncSZ", "group 3"),
    ("LKYAIYFEVRE [LAMA2_Y1258_A1261V]", "AncSZ", "group 3"),
    ("KGPGEYVNIEF [IRS1_Y896_S892G]", "AncSZ", "group 2"),
    ("NALAQYQEMEK [BBS4_Y395]", "AncSZ", "group 3"),
    ("GHEFIYVDPMQ [PDGFRA_Y574_YF]", "AncSZ", "group 3"),
    ("SVEELYAIPPD [PEAK1_Y797]", "AncSZ", "group 3"),
    ("TQPSPYAVYRF [RPGRIP1_Y823]", "AncSZ", "group 2"),
    ("GFILMYDITNE [RAB3C_Y110]", "AncSZ", "group 3"),
    ("KPGLVYNKVNP [SPRED3_Y72]", "AncSZ", "group 1"),
    ("NKKHHYRELPV [ERN2_Y860]", "AncSZ", "group 3"),
    ("HEKKAYSFCGT [RPS6KA3_Y226]", "AncSZ", "group 3"),
    ("EQWRAYLEGTC [HLA-C_Y183_L180W]", "AncSZ", "group 3"),
    ("TNGFTCGSSHQ [MANEA_Y331_Y331C]", "AncSZ", "group 1"),
    ("ACLSLYGGFVE [MVD_Y164_R161L]", "AncSZ", "group 3"),
    ("TEYIQYVRRKN [MAX_Y73_M74V]", "AncSZ", "group 1"),
]
